Data origin: patent US11198713B2

// values below are reported solubility
measurement notes: Solubility in DPBS (A280 of supernatant)
Type: physicochemical
test conditions: DPBS, Table 3 Part B, amino-stapled product; read-out: Solubility in DPBS
Numbered stars: 1 amine (or outer) side, 2 acyl side, 3 side chain; on linkers, the order of the positions; unused ones are H or OH. Bridge positions count the residues as written; N and C are the ends. Square brackets hold non-standard residues; d marks the D form. Peptide text beside a SMILES is read from it. X8 = CN(CC=[*:3])CCC[C@](C)(N[*:1])C(=O)[*:2]; X6 = CN(CC=[*:3])CC[C@](C)(N[*:1])C(=O)[*:2]; X4 = O=C([C@]1(N[*:1])CCN(CC=[*:3])C1)[*:2]; X5 = C[C@](CCCCCC=[*:3])(N[*:1])C(=O)[*:2]; X7 = C[C@](CCCCC=[*:3])(N[*:1])C(=O)[*:2]; X9 = C[C@](CCC=[*:3])(N[*:1])C(=O)[*:2]; R8 = C=CCCCCCC[C@@](C)(N)C(=O)O; R5 = C=CCCC[C@@](C)(N)C(=O)O
recorded metric: solubility (µM)

• CC[C@H](C)[C@@H]1NC(=O)[C@H](Cc2c[nH]cn2)NC(=O)[C@H](C)NC(=O)[C@H](CC(=O)O)NC(=O)[C@H](CC(C)C)NC(=O)[C@H]([C@@H](C)CC)NC(=O)[C@](C)(NC(=O)[C@H](C)NC(C)=O)CCCCC=CCN(C)CCC[C@@](C)(C(=O)N[C@@H](CCCNC(=N)N)C(=O)N[C@H](C(=O)N[C@@H](Cc2c[nH]c3ccccc23)C(N)=O)C(C)C)NC1=O [FP0511a, Ac-A-R6-I-L-D-A-H-I-MH-R-V-W-NH2] (Ac-A[X7]ILDAHI[X8]RVW-NH2; staple 2-9) = 170
• CC[C@H](C)[C@@H]1NC(=O)[C@H](Cc2c[nH]cn2)NC(=O)[C@H](C)NC(=O)[C@H](CC(=O)O)NC(=O)[C@H](CC(C)C)NC(=O)[C@H]([C@@H](C)CC)NC(=O)[C@](C)(NC(=O)[C@H](C)NC(C)=O)CCCCCCC=CCN2CC[C@@](C(=O)N[C@@H](CCCNC(=N)N)C(=O)N[C@H](C(=O)N[C@@H](Cc3c[nH]c4ccccc34)C(N)=O)C(C)C)(C2)NC1=O [FP0217a, Ac-A-R8-I-L-D-A-H-I-MB-R-V-W-NH2] (Ac-A[R8]ILDAHI[X4]RVW-NH2; staple 2-9) = 111
• CC[C@H](C)[C@@H]1NC(=O)[C@H](Cc2c[nH]cn2)NC(=O)[C@H](C)NC(=O)[C@H](CC(=O)O)NC(=O)[C@H](CC(C)C)NC(=O)[C@H]([C@@H](C)CC)NC(=O)[C@](C)(NC(=O)[C@H](C)NC(C)=O)CCC=CCN(C)CCC[C@@](C)(C(=O)N[C@@H](CCCNC(=N)N)C(=O)N[C@H](C(=O)N[C@@H](Cc2c[nH]c3ccccc23)C(N)=O)C(C)C)NC1=O [FP0509a, Ac-A-R4-I-L-D-A-H-I-MH-R-V-W-NH2] (Ac-A[X9]ILDAHI[X8]RVW-NH2; staple 2-9) = 192
• CC[C@H](C)[C@@H]1NC(=O)[C@H](Cc2c[nH]cn2)NC(=O)[C@H](C)NC(=O)[C@H](CC(=O)O)NC(=O)[C@H](CC(C)C)NC(=O)[C@H]([C@@H](C)CC)NC(=O)[C@](C)(NC(=O)[C@H](C)NC(C)=O)CCCC=CCN(C)CCC[C@@](C)(C(=O)N[C@@H](CCCNC(=N)N)C(=O)N[C@H](C(=O)N[C@@H](Cc2c[nH]c3ccccc23)C(N)=O)C(C)C)NC1=O [FP0510a, Ac-A-R5-I-L-D-A-H-I-MH-R-V-W-NH2] (Ac-A[R5]ILDAHI[X8]RVW-NH2; staple 2-9) = 165
• CC[C@H](C)[C@@H]1NC(=O)[C@H](Cc2c[nH]cn2)NC(=O)[C@H](C)NC(=O)[C@H](CC(=O)O)NC(=O)[C@H](CC(C)C)NC(=O)[C@H]([C@@H](C)CC)NC(=O)[C@](C)(NC(=O)[C@H](C)NC(C)=O)CCCCCC=CCN(C)CC[C@@](C)(C(=O)N[C@@H](CCCNC(=N)N)C(=O)N[C@H](C(=O)N[C@@H](Cc2c[nH]c3ccccc23)C(N)=O)C(C)C)NC1=O [FP0503a, Ac-A-R7-I-L-D-A-H-I-MF-R-V-W-NH2] (Ac-A[X5]ILDAHI[X6]RVW-NH2; staple 2-9) = 236
